FYI, the data here is from patent US11161830B2.

test system: HBV (genotype AeUS); test: Test Example 2-1: anti-HBV assay in PXB-cells (fresh human hepatocytes); assay type: cell-based, hepatitis B virus; details: Hepatitis B virus, Hepatocyte; PXB-cells infected with HBV genotype AeUS, culture supernatant on day 32 post infection; read-out: IC50 HBV-DNA
Give IC50 for every item shown.

stdin: Bench note: what IC50 did Cc1nc2ccc(-n3cc(C(=O)O)c(=O)cc3-c3ccc(N4CCCC4)c(C#N)c3)cc2s1 [Example 16] show?
stdout: 470 nM

stdin: Bench note: what IC50 did COCCN1CCN(c2nc3ccc(-n4cc(C(=O)O)c(=O)cc4-c4ccc(N5CC[C@@H](OC)C5)c(Cl)c4)cc3s2)CC1 [Example 12-2] show?
stdout: 28 nM

stdin: Bench note: what IC50 did COCCO[C@@H]1CCN(c2ccc(-c3cc(=O)c(C(=O)O)cn3-c3ccc4nc(C)sc4c3)cc2)C1 [Example 9] show?
stdout: 580 nM

stdin: Bench note: what IC50 did O=C(O)c1cn(-c2ccc3nc(N4CCOCC4)sc3c2)c(-c2ccc(N3CCCC3)c(F)c2)cc1=O [Example 7] show?
stdout: 12 nM

###

Give IC50 for every item shown.
Test system: HBV (genotype CAT)
Test: Test Example 2-2: anti-HBV assay in PXB-cells (fresh human hepatocytes)
Assay type: cell-based
Conditions: Hepatitis B virus, Hepatocyte, read-out: IC50 HBsAg, PXB-cells infected with HBV genotype CAT, culture supernatant on day 32 post infection
Experimental: Using fresh human hepatocytes (PXB-cells, manufactured by PhenixBio Co., Ltd.) collected from a PXB mouse (a chimeric mouse with human hepatocytes), the anti-HBV activity of the representative compounds was evaluated in the following procedure. The following was used as a medium: DMEM (manufactured by Sigma)+0.25 μg/mL insulin (manufactured by Wako)+1% penicillin/streptomycin. […]

stdin: Bench note: what IC50 did CN(C)[C@H]1CCN(c2nc3ccc(-n4cc(C(=O)O)c(=O)cc4-c4ccc(N5CCCC5)cc4)cc3s2)C1 show?
stdout: < 0.5 µM

stdin: Bench note: what IC50 did COCCN1CCN(c2nc3ccc(-n4cc(C(=O)O)c(=O)cc4-c4ccc(N5CCCC5)c(Cl)c4)cc3s2)CC1 show?
stdout: 0.061 µM

stdin: Bench note: what IC50 did CN(C)[C@@H]1CCN(c2nc3ccc(-n4cc(C(=O)O)c(=O)cc4-c4ccc(N5CCCC5)cc4)cc3s2)C1 show?
stdout: < 0.5 µM

stdin: Bench note: what IC50 did CO[C@H]1CCN(c2nc3ccc(-n4cc(C(=O)O)c(=O)cc4-c4ccc(N5CCCC5)cc4)cc3s2)C1 show?
stdout: < 0.5 µM

stdin: Bench note: what IC50 did COCCO[C@@H]1CCN(c2ccc(-c3cc(=O)c(C(=O)O)cn3-c3ccc4nc(N5CCOCC5)sc4c3)cc2)C1 show?
stdout: < 0.5 µM

stdin: Bench note: what IC50 did CO[C@@H]1CCN(c2ccc(-c3cc(=O)c(C(=O)O)cn3-c3ccc4nc(N5CCOCC5)sc4c3)cc2F)C1 show?
stdout: < 0.5 µM

stdin: Bench note: what IC50 did COC1CN(c2nc3ccc(-n4cc(C(=O)O)c(=O)cc4-c4ccc5c(c4)OC[C@@H]4CCCN54)cc3s2)C1 show?
stdout: < 0.5 µM

###

test system: HBV; assay: Test Example 1-2: anti-HBV assay in HepG2.2.15 cells (test solution 100 μL/well); assay type: cell-based, hepatitis B virus; conditions: Hepatitis B virus, culture supernatant, read-out: IC50 HBV-DNA
MEASURED ENDPOINT: IC50 (nM)
I only need the number, in nM, no unit after it.

stdin: Bench note: what IC50 did COCCO[C@@H]1CCN(c2ccc(-c3cc(=O)c(C(=O)O)cn3-c3ccc4nc(N5CC[C@H](OC)C5)sc4c3)cc2)C1 show?
stdout: 8.3

stdin: Bench note: what IC50 did CO[C@@H]1CCN(c2ccc(-c3cc(=O)c(C(=O)O)cn3-c3ccc4nc(N5CC(OC(F)F)C5)sc4c3)cc2F)C1 show?
stdout: 0.96

stdin: Bench note: what IC50 did CO[C@@H]1CCN(c2ccc(-c3cc(=O)c(C(=O)O)cn3-c3ccc4nc(N5CC(C)(OC)C5)sc4c3)cc2F)C1 show?
stdout: 0.89

stdin: Bench note: what IC50 did COCCO[C@H]1CCN(c2ccc(-c3cc(=O)c(C(=O)O)cn3-c3ccc4nc(N5CCC[C@@H]5COC)sc4c3)cc2)C1 show?
stdout: 10

stdin: Bench note: what IC50 did COCCO[C@H]1CCN(c2ccc(-c3cc(=O)c(C(=O)O)cn3-c3ccc4nc(N5CCOCC5)sc4c3)cc2)C1 show?
stdout: 44

stdin: Bench note: what IC50 did CO[C@@H]1CCN(c2ccc(-c3cc(=O)c(C(=O)O)cn3-c3ccc4nc(N5CC(OC(C)C)C5)sc4c3)cc2F)C1 show?
stdout: 0.65
